# System: HCT-116 colon
# methodDescription: NCI tumour cell line growth inhibition, 48 h; in the data active = GI50 below about 0.43 µM; inactive = the rest
Can you answer with just one of these options? active, inactive

Previously resolved entries follow.
{"molecule": "O=C(CSCC(=O)N/N=C/c1ccccc1O)N/N=C\\c1ccccc1O", "studySystem": "HCT-116 colon", "labelClass": "inactive"}
{"molecule": "O=[N+]([O-])c1cccc(-c2nc(-c3ccc(Cl)cc3Cl)cn2-c2ccccc2)c1", "studySystem": "HCT-116 colon", "labelClass": "inactive"}
{"molecule": "CSc1ccc2c(c1)C(=O)c1c-2n(CCCN)c(=O)c2cc([N+](=O)[O-])ccc12", "studySystem": "HCT-116 colon", "labelClass": "active"}
{"molecule": "COCCOCCOCc1n(Cc2ccc3ccccc3c2)c2ccccc2[n+]1Cc1ccc2ccccc2c1", "studySystem": "HCT-116 colon", "labelClass": "active"}
{"molecule": "CNC(=O)c1cc(Oc2cccc3nc(NC(=O)Nc4cc(C(F)(F)F)cc(C(F)(F)F)c4)ccc23)ccn1", "studySystem": "HCT-116 colon", "labelClass": "inactive"}
{"molecule": "O=C1/C=C/[C@@H](O)[C@@H]2C[C@@H](O)C[C@H]2/C=C/CCC[C@H](CCc2ccc3ncccc3c2)O1", "studySystem": "HCT-116 colon", "labelClass": "active"}

What classification did Nc1nonc1-c1nc2ccccc2n1Cc1ccc(F)cc1 end up with in this test?
inactive

Query: recorded result category for Nc1ccccc1C#C/C=C\C#CC#C/C=C\C#Cc1ccccc1N in this test
inactive

Tell me the assay call for CCCCCCCCCCCCCCCCCCNCc1ccc(Cl)cc1 please.
inactive

Fill in: this test's call for O=C1CC[C@H](N2Cc3c(OCc4ccc(CN5CCOCC5)cc4)cccc3C2=O)C(=O)N1 is ___
inactive
